target: human IDO1 (Homo sapiens); assay: HEK Human IDO-1 inhibition assay (kynurenine readout, Ehrlich reagent, absorbance 490 nm); details: human IDO1/HEK293 cells, incubated 20 hours with compound; 500 nM reference standard = 100% inhibition
Sequence (P14902 whole entry): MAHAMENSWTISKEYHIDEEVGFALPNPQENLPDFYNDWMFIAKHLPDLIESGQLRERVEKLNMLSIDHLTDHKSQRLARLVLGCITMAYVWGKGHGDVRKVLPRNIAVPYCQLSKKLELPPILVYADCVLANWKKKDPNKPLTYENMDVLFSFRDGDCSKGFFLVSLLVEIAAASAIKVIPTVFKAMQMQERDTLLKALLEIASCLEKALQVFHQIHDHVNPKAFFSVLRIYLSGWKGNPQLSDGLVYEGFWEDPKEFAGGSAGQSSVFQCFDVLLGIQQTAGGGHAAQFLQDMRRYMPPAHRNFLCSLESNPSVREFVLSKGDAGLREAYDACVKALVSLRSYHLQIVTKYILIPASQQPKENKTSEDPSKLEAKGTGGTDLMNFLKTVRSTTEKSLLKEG
pIC50: −log10 of the molar value.

# COMPOUND, pIC50
measured = [
    ("CC(C)CN(c1ccc(OCC(=O)O)cc1NC(=O)Nc1ccc(OCc2ccccc2)cc1)C1CCCCC1 [Example 15]", "≤ 7.00"),
    ("CC(C)CN(c1cc(F)c(OC(C)C(=O)O)cc1NC(=O)Nc1ccc(Cl)cc1F)C1CCCCC1 (racemic) [racemic 136]", "> 8.30"),
    ("CC(C)CN(c1ccc(OCC(=O)O)cc1NC(=O)N(C)c1ccc(F)cc1)C1CCCCC1 [Example 41]", "≤ 7.00"),
    ("CC(C)CN(c1cc(F)c(OCC(=O)O)cc1NC(=O)Nc1ccccc1F)C1CCCCC1 [Example 129]", "> 7.00"),
    ("C=C(C)CN(c1ccc(OC(C)C(=O)O)cc1NC(=O)Nc1ccc(Cl)cc1F)C1CCOCC1 (stereo not shown) [Example 138]", "> 7.00"),
    ("Cc1ccc(NC(=O)Nc2cc(OC(C(=O)O)C(C)C)ccc2N(CC(C)C)C2CCCCC2)cc1 (racemic) [Example 84]", "> 7.00"),
    ("Cc1ccc(NC(=O)Nc2cc(OC(C)(C)C(=O)O)ccc2N(CC(C)C)C2CCCCC2)cc1 [Example 92]", "> 8.30"),
]
